All figures here come from patent US20120213794A1.

Target: T1, human PCSK9 (human, UniProt Q8NBP7 31-692)
T1 construct: Secreted PCSK9 is autocleaved into prodomain and mature chain, and a His-tag is named for the HEK293 constructs; also called hPCSK9; proprotein convertase subtilisin-kexin type 9
T1 sequence (Q8NBP7 31-692 limits assumed): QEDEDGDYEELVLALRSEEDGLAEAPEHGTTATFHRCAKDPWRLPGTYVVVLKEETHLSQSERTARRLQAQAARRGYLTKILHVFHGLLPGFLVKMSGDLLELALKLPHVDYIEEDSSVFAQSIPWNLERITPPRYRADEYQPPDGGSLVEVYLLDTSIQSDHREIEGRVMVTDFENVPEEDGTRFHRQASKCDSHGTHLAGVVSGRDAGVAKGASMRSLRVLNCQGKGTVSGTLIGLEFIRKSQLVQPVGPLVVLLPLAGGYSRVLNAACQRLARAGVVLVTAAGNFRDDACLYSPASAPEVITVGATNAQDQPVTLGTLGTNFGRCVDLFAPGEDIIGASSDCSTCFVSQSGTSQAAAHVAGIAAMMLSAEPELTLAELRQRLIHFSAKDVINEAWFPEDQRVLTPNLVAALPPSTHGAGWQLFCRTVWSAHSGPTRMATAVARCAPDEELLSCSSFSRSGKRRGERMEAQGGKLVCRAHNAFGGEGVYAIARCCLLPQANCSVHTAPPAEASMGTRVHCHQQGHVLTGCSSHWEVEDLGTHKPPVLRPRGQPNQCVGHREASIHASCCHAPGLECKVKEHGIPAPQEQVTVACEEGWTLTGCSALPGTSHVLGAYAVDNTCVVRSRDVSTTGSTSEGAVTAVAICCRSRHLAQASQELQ
Assay: SPR (Biacore), IgG captured by anti-human IgG, PCSK9 injected at 3.75-60 nM
Observed Property: koff (s⁻¹)
Give the number; s⁻¹ is assumed, so skip it.

Use these answered entries as a reference point.
Binder	koff (s⁻¹)
AX211 IgG (antibody, V domains shown, Purified IgG) VH: QVQLLESGGGLVQPGGSLRLSCKASGYTFSRQGFTWVRQAPGKGLEWIGWIDPGNGGTRYNEKFKGKATISRDNSKNTLYLQMNSLRAEDTAVYYCARYRVGYSLDYWGQGTLVTVSS VL: EIVLTQSPATLSLSPGERATITCRASQYVGSYLNWYQQKPGQAPRLLIYDASNRATGIPARFSGSGSGTDFTLTISSLEPEDFAVYYCQVWDSSPPVVFGGGTKVEIK	0.000589
AX212 IgG (antibody, V domains shown, Purified IgG) VH: QVQLLESGGGLVQPGGSLRLSCKASGYTFSSYSFSWVRQAPGKGLEWIGYIDPGSGGTKYNQKFQGKATISRDNSKNTLYLQMNSLRAEDTAVYYCARQRVGYSLDYWGQGTLVTVSS VL: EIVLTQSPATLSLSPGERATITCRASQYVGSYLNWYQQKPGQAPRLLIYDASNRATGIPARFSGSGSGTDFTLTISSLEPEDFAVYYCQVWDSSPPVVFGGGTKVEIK	0.000324
AX137 IgG (antibody, V domains shown, Purified IgG) VH: EVQLLESGGGLVQPGGSLRLSCKASGYTFSSYGMYWVRQAPGKGLEWIGWIDPGSGGTKYNEKFKGKATISRDNSKNTLYLQMNSLRAEDTAVYYCARERYGYYFDYWGQGTLVTVSS VL: EIVLTQSPATLSLSPGERATITCRASQYIGSYLNWYQQKPGQAPRLLIYDASNRATGIPARFSGSGSGTDFTLTISSLEPEDFAVYYCQAWDSSPPVVFGGGTKVEIK	0.00332
AX210 IgG (antibody, V domains shown, Purified IgG) VH: QVQLLESGGGLVQPGGSLRLSCKASGYTFSSYSIYWVRQAPGKGLEWIGWIDPGNGGTRYNQKFQSKATISRDNSKNTLYLQMNSLRAEDTAVYYCARARVGYSLDYWGQGTLVTVSS VL: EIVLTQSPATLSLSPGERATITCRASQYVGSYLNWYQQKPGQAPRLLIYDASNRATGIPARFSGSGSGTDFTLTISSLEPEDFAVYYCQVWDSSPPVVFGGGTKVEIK	0.000621
AX213 IgG (antibody, V domains shown) VH: EVQLLESGGGLVQPGGSLRLSCKASGYTFSRYGINWVRQAPGKGLEWIGRIDPGNGGTRYNEKFKGKATISRDNSKNTLYLQMNSLRAEDTAVYYCARANDGYSFDYWGQGTLVTVSS VL: EIVLTQSPATLSLSPGERATITCRASQYVGSYLNWYQQKPGQAPRLLIYDASNRATGIPARFSGSGSGTDFTLTISSLEPEDFAVYYCQVWDSSPPVVFGGGTKVEIKR	0.00073

Ask | Using the record for AX114 IgG (antibody, V domains shown, Purified IgG; also called AX114-IgG2) VH: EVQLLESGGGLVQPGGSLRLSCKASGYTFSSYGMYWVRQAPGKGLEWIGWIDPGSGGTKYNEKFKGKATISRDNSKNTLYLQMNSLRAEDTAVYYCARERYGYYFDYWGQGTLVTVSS VL: EIVLTQSPATLSLSPGERATITCRASQYVGTYLNWYQQKPGQAPRLLIYDASNRATGIPARFSGSGSGTDFTLTISSLEPEDFAVYYCQVWDSSPPVAFGGGTKVEIK , report its koff.
Reply | 0.00361
